Listing of entries alongside the reported MIC.
- measurement-notes: Antimicrobial activity against Acinetobacter genomic species 13TU ATCC 17903 harboring pYMAb3 plasmid by agar dilution method
- Format: functional
- measurement-setup: Acinetobacter nosocomialis
Form entry: value (µg/mL) — number only.

{"columns": ["compound", "data-value"],
 "data": [
  ["C[C@@H](O)[C@H]1C(=O)N2C(C(=O)O)=C(SCCNC=N)C[C@H]12 [IMIPENEM ANHYDROUS]", 0.25],
  ["CC(C)(O/N=C(\\C(=O)N[C@@H]1C(=O)N2C(C(=O)[O-])=C(C[n+]3ccccc3)CS[C@H]12)c1csc(N)n1)C(=O)O", 4],
  ["C[C@@H](O)[C@H]1C(=O)N2C(C(=O)O)=C(S[C@@H]3CN[C@H](C(=O)N(C)C)C3)[C@H](C)[C@H]12", 0.5],
  ["CO/N=C(\\C(=O)N[C@@H]1C(=O)N2C(C(=O)[O-])=C(C[N+]3(C)CCCC3)CS[C@H]12)c1csc(N)n1 [CEFEPIME]", 2],
  ["CC1(C)S[C@@H]2[C@H](NC(=O)[C@H](N)c3ccc(O)cc3)C(=O)N2[C@H]1C(=O)O", 64]
]}

Q. Request the reported MIC associated with CCN1CCN(C(=O)N[C@@H](C(=O)N[C@@H]2C(=O)N3[C@@H]2SC(C)(C)[C@@H]3C(=O)O)c2ccccc2)C(=O)C1=O
A. 16

Q. Request the reported MIC associated with CC1(C)S[C@@H]2[C@H](NC(=O)[C@H](C(=O)O)c3ccsc3)C(=O)N2[C@H]1C(=O)O
A. 16

###

Listing of entries alongside the reported MIC.
- measurement-notes: Antimicrobial activity against Acinetobacter genomic species 13TU ATCC 17903 harboring pOXA-58-7 plasmid by agar dilution method
- Assay type: functional
- measurement-setup: Acinetobacter nosocomialis
Form entry: value (µg/mL) — number only.

{"columns": ["compound", "unit-label", "MIC"],
 "data": [
  ["C[C@@H](O)[C@H]1C(=O)N2C(C(=O)O)=C(SCCNC=N)C[C@H]12 [IMIPENEM ANHYDROUS]", "µg/mL", 0.5],
  ["CCN1CCN(C(=O)N[C@@H](C(=O)N[C@@H]2C(=O)N3[C@@H]2SC(C)(C)[C@@H]3C(=O)O)c2ccccc2)C(=O)C1=O", "µg/mL", 32],
  ["CC(C)(O/N=C(\\C(=O)N[C@@H]1C(=O)N2C(C(=O)[O-])=C(C[n+]3ccccc3)CS[C@H]12)c1csc(N)n1)C(=O)O", "µg/mL", 4],
  ["C[C@@H](O)[C@H]1C(=O)N2C(C(=O)O)=C(S[C@@H]3CN[C@H](C(=O)N(C)C)C3)[C@H](C)[C@H]12", "µg/mL", 0.5],
  ["CC1(C)S[C@@H]2[C@H](NC(=O)[C@H](N)c3ccc(O)cc3)C(=O)N2[C@H]1C(=O)O", "µg/mL", 256]
]}

Now let's try a different one.
Q. Request the reported MIC associated with CC1(C)S[C@@H]2[C@H](NC(=O)[C@H](C(=O)O)c3ccsc3)C(=O)N2[C@H]1C(=O)O
A. 256

###

- measurement-notes: Antimicrobial activity against Acinetobacter genomic species 13TU ATCC 17903 harboring pOXA-58-6 plasmid by agar dilution method
- Assay type: functional
- measurement-setup: Acinetobacter nosocomialis
reported-property: MIC (µg/mL)
Form entry: value (µg/mL) — number only.

{"columns": ["compound", "unit-label", "MIC"],
 "data": [
  ["CC(C)(O/N=C(\\C(=O)N[C@@H]1C(=O)N2C(C(=O)[O-])=C(C[n+]3ccccc3)CS[C@H]12)c1csc(N)n1)C(=O)O [CEFTAZIDIME]", "µg/mL", 4]
]}

Now let's try a different one.
Q. Request the reported MIC associated with CCN1CCN(C(=O)N[C@@H](C(=O)N[C@@H]2C(=O)N3[C@@H]2SC(C)(C)[C@@H]3C(=O)O)c2ccccc2)C(=O)C1=O [PIPERACILLIN]
A. 512

###

- measurement-notes: Antimicrobial activity against Acinetobacter genomic species 13TU by agar dilution method
- Type: functional
- measurement-setup: Acinetobacter nosocomialis
reported-property: MIC

Here's what some known entries look like.
{"columns": ["molecule", "MIC"],
 "data": [
  ["C[C@@H](O)[C@H]1C(=O)N2C(C(=O)O)=C(SCCNC=N)C[C@H]12 [IMIPENEM ANHYDROUS]", "16 µg/mL"],
  ["C[C@@H](O)[C@H]1C(=O)N2C(C(=O)O)=C(S[C@@H]3CN[C@H](C(=O)N(C)C)C3)[C@H](C)[C@H]12", "8 µg/mL"],
  ["CO/N=C(\\C(=O)N[C@@H]1C(=O)N2C(C(=O)[O-])=C(C[N+]3(C)CCCC3)CS[C@H]12)c1csc(N)n1 [CEFEPIME]", "128 µg/mL"],
  ["CC1(C)S[C@@H]2[C@H](NC(=O)[C@H](C(=O)O)c3ccsc3)C(=O)N2[C@H]1C(=O)O", "> 1020 µg/mL"]
]}

Q. Request the reported MIC associated with CC1(C)S[C@@H]2[C@H](NC(=O)[C@H](N)c3ccc(O)cc3)C(=O)N2[C@H]1C(=O)O
A. > 1020 µg/mL

Q. Request the reported MIC associated with CC(C)(O/N=C(\C(=O)N[C@@H]1C(=O)N2C(C(=O)[O-])=C(C[n+]3ccccc3)CS[C@H]12)c1csc(N)n1)C(=O)O
A. 16 µg/mL

Q. Request the reported MIC associated with CCN1CCN(C(=O)N[C@@H](C(=O)N[C@@H]2C(=O)N3[C@@H]2SC(C)(C)[C@@H]3C(=O)O)c2ccccc2)C(=O)C1=O
A. > 1020 µg/mL

###

- measurement-notes: Antimicrobial activity against Acinetobacter genomic species 13TU ATCC 17903 harboring pOXA-58-6 plasmid by agar dilution method
- Format: functional
- measurement-setup: Acinetobacter nosocomialis
reported-property: MIC (µg/mL)
Form entry: value (µg/mL) — number only.

Here's what some known entries look like.
{"columns": ["compound", "data-value"],
 "data": [
  ["CO/N=C(\\C(=O)N[C@@H]1C(=O)N2C(C(=O)[O-])=C(C[N+]3(C)CCCC3)CS[C@H]12)c1csc(N)n1 [CEFEPIME]", 2],
  ["C[C@@H](O)[C@H]1C(=O)N2C(C(=O)O)=C(S[C@@H]3CN[C@H](C(=O)N(C)C)C3)[C@H](C)[C@H]12", 8]
]}

Q. Request the reported MIC associated with C[C@@H](O)[C@H]1C(=O)N2C(C(=O)O)=C(SCCNC=N)C[C@H]12 [IMIPENEM ANHYDROUS]
A. 16
